assayTarget: HLA-B*35:01
testMethodNotes: IEDB peptide-MHC binding, purified MHC/competitive/radioactivity; filed as Kd, often an IC50 or EC50 that approximates it; bounds were set here for any values at or beyond the usual limits of such assays
experimentalConditions: source organism: Vaccinia virus WR
pKd: −log10 of the molar value.

[
  {
    "residueSequence": "EVVMAYVGIK",
    "pKd": "≤ 4.63"
  },
  {
    "residueSequence": "DPGNPNCLEW",
    "pKd": "≤ 4.25"
  },
  {
    "residueSequence": "KPFNNILNLI",
    "pKd": "≤ 4.16"
  },
  {
    "residueSequence": "LLTACTIFYI",
    "pKd": "≤ 4.16"
  },
  {
    "residueSequence": "DPDHYKDYA",
    "pKd": "≤ 4.11"
  }
]
